target: KRAS G12C (Homo sapiens, UniProt P01116, G12C); experiment: Cell Activity Assay: accumulation of GDP-bound KRAS G12C in MIAPaCa-2 cells (Raf-1 RBD capture, MSD readout); format: cell-based; set-up: endogenous in cells; host or cells: MIAPaCa-2; conditions: 6 hours, assay limit is 30.00
measured.metric: IC50 (µM)

[a] C=CC(=O)N1CCN(c2ncnc3c(Oc4c(Cl)c(F)cc5[nH]ncc45)nc(Cl)cc23)C[C@@H]1C [Example 36A]
[b] C=CC(=O)N1CCN(c2nc(OC[C@H]3COCCN3C)nc3c(Oc4c(Cl)c(F)cc5[nH]ncc45)nccc23)CC1 [Example 10H]
[c] C=CC(=O)N1CCN(c2ncnc3c(Oc4c(C)c(C)cc5[nH]ncc45)nccc23)CC1 [Example 12A]
Kindly provide a descending ordering of the above compounds based on their IC50. Give the order by naming the labels one after another as requested. a, c, b

----------
Molecular target: GDP-loaded KRAS (1-169) G12C, C51S, C80L, C118S (Homo sapiens, UniProt P01116, C118S/C51S/C80L/G12C)
Construct: GDP-loaded KRAS (1-169) G12C, C51S, C80L, C118S
Assay: Mass Spectrometry Reactivity Assay (MSRA): covalent adduct of compound and KRAS G12C, Percent Modification
Assay type: binding
Settings: 10 μM compound, 0.50 hr
Procedure: Mass Spectrometry Reactivity Assay (MSRA) Compounds presented in the present invention covalently bind to KRAS G12C using MSRA to detect a covalent adduct of the exemplary compound and KRAS G12C. […] The percent of modified protein at the defined concentration of exemplary compound was calculated using the following formula: % mod=Num of modified peak/Sum of modified+unmodified. […]
measured.metric: MSRA (% modification) 10 μM 0.50 hr (%)

In the examples that follow, each entry is paired with its recorded MSRA (% modification) 10 μM 0.50 hr.
[[record]]
molecule = "C=CC(=O)N1CCN(c2ncnc3c(Oc4cc(O)cc5ccccc45)nc(C(F)(F)F)cc23)CC1"
measured_metric = "MSRA (% modification) 10 μM 0.50 hr"
units_symbol = "%"
result_value = 27

[[record]]
molecule = "C=CC(=O)N1CCN(c2ncnc3c(Oc4c(Cl)c(C)cc5[nH]ncc45)nc(C)cc23)CC1 [Example 05C]"
measured_metric = "MSRA (% modification) 10 μM 0.50 hr"
units_symbol = "%"
result_value = 61

[[record]]
molecule = "C=CC(=O)N1CCN(c2nc(OC[C@@H]3CCCN3C)nc3c(Oc4c(C)ccc5[nH]ncc45)cccc23)CC1 [Example 07E]"
measured_metric = "MSRA (% modification) 10 μM 0.50 hr"
units_symbol = "%"
result_value = 82

[[record]]
molecule = "C=CC(=O)N1CCN(c2ncnc3c(Oc4c(C)ccc5[nH]ncc45)cc(Cl)cc23)CC1 [Example 12C]"
measured_metric = "MSRA (% modification) 10 μM 0.50 hr"
units_symbol = "%"
result_value = 34

[[record]]
molecule = "C=CC(=O)N1CCN(c2nc(OCCNC(C)=O)nc3c(Oc4c(C)ccc5[nH]ncc45)cccc23)CC1 [Example 17F]"
measured_metric = "MSRA (% modification) 10 μM 0.50 hr"
units_symbol = "%"
result_value = 60

[[record]]
molecule = "C=CC(=O)N1CCN(c2ncnc3c(Oc4c(Cl)c(F)cc5[nH]ncc45)nccc23)CC1 [Example 02C]"
measured_metric = "MSRA (% modification) 10 μM 0.50 hr"
units_symbol = "%"
result_value = 60

[[record]]
molecule = "C=CC(=O)N1CCN(c2nc(N3CC(N(C)C)C3)nc3c(Oc4c(Cl)c(C)cc5[nH]ncc45)nc(C)cc23)CC1 [Example 01E]"
measured_metric = "MSRA (% modification) 10 μM 0.50 hr"
units_symbol = "%"
result_value = 29

[[record]]
molecule = "C=CC(=O)N1CCN(c2ncnc3c(Oc4c(Cl)c(Cl)cc5[nH]ncc45)nc(Cl)cc23)CC1 [Example 30A]"
measured_metric = "MSRA (% modification) 10 μM 0.50 hr"
units_symbol = "%"
result_value = 67


[1] C=CC(=O)N1CCN(c2ncnc3c(Oc4c(Cl)c(C)cc5[nH]ncc45)nccc23)C[C@H]1C [Example 21A]
[2] C=CC(=O)N1CCN(c2ncnc3c(Oc4c(Cl)c(C)cc5[nH]ncc45)cccc23)CC1 [Example 06C]
Task for the reader: decide whether 1 or 2 has the larger MSRA (% modification) 10 μM 0.50 hr. Kindly give the label for the entry you pick. 2
(2: 53%, 1: 12%)

[A] C=CC(=O)N1CCN(c2ncnc3c(Oc4c(C)ccc5[nH]ncc45)cccc23)[C@@H](C)C1 [Example 10C]
[B] C=CC(=O)N1CCN(c2ncnc3c(Oc4c(Cl)ccc5[nH]ncc45)cccc23)C[C@@H]1C [Example 07C]
Task for the reader: decide whether A or B has the larger MSRA (% modification) 10 μM 0.50 hr. Kindly give the label for the entry you pick. A
(A: 27%, B: 15%)

Origin of values: patent US10662204B2
